molecular target: mouse fibroblast cell line transfected with the HER-2 oncogene (3T3/neu) (UniProt P04626, cells depend on it, species not given); test: Cell proliferation assay (SRB), 3T3/neu; format: cell-based; details: EGFR −, Her-2 +++; 2 days, SRB; read-out: CELL IC50 3T3/NEU (converted)
Sorting guide: entries reporting GI50 beneath 0.6 µM go in the true pile, the rest go in the false pile.

[[record]]
smilesstr = "CCOc1cc2ncc(C#N)c(Nc3ccc(Oc4ccncc4)c(Cl)c3)c2cc1NC(=O)/C=C/CN(C)C"
cat = "false"

[[record]]
smilesstr = "COc1cc2ncc(C#N)c(Nc3ccc(Sc4nccn4C)c(Cl)c3)c2cc1N"
cat = "false"

[[record]]
smilesstr = "CCOc1cc2ncc(C#N)c(Nc3ccc4c(c3)C(=O)OC4)c2cc1OCC"
cat = "false"

[[record]]
smilesstr = "CCOc1cc2ncc(C#N)c(Nc3ccc(Sc4nc(-c5ccccc5)cs4)c(C(F)(F)F)c3)c2cc1NC(=O)/C=C/CN(C)C"
cat = "false"

[[record]]
smilesstr = "CCOc1cc2ncc(C#N)c(Nc3ccc(OCc4cccs4)c(Cl)c3)c2cc1NC(=O)/C=C/CN(C)C"
cat = "true"

[[record]]
smilesstr = "CCOc1cc2ncc(C#N)c(Nc3ccc(Sc4nc(-c5ccccc5)cs4)c(Cl)c3)c2cc1NC(=O)/C=C/CN(C)C"
cat = "true"

[[record]]
smilesstr = "CCOc1cc2ncc(C#N)c(Nc3ccc4c(c3)CCC4)c2cc1OCC"
cat = "true"

[[record]]
smilesstr = "CCOc1cc2ncc(C#N)c(Nc3ccc4c(c3)C(=O)NCC(=O)N4C)c2cc1OCC"
cat = "false"

